experimental-system: Urokinase-type plasminogen activator (Homo sapiens)
measured-metric: pIC50
Please report pIC50 as the negative decimal logarithm of the molar concentration, giving only the number.

Value lookup for pIC50; key = `Cn1cc(NC(=O)c2cc(NC(=O)CN=C(N)N)cn2C)cc1C(=O)NCCC(=N)N` 4.52

Query (molecule): `N=C(N)c1ccc(OCCCCCOc2ccc(C(=N)N)cc2)cc1` ; field requested: pIC50 4.70

---

measured-metric: IC50 (µM)
Only the number, expressed in µM, is required.

Requested read-out IC50, target or system UniProt:P07477, entry `Nc1cccc(C(=O)Nc2cccc(C(=O)NCCCCCNC(=O)c3cccc(NC(=O)c4cccc(N)c4)c3)c2)c1` 20
